Data origin, for the record: patent US20080194539A1

target: dopamine D3 receptor (Homo sapiens, UniProt P35462); experiment: Mitogenesis assay, [3H]thymidine incorporation in D3 receptor-expressing cells; conditions: dose-effect curve, seven concentrations in quadruplicate
Sequence (P35462 whole entry): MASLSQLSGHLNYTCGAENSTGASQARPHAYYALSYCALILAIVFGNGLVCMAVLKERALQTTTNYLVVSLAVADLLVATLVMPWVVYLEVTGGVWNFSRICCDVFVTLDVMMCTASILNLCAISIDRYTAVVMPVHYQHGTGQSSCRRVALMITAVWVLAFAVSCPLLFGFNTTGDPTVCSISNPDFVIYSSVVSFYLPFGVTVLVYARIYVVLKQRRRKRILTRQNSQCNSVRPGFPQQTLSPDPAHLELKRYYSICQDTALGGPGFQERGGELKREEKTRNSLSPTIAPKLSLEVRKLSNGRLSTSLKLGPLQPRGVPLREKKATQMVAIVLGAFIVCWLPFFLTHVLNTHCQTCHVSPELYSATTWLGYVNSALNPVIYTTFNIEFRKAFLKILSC
Here, each record is paired with measured EC50 data.

| SMILES TEXT | EC50 [nM] |
| --- | --- |
| O=C(NCCCCN1CCN(c2cccc3c2OCCC3)CC1)c1cc2ccccc2s1 | 1.8 |
| O=C(NCCCCN1CCN(c2cccc3c2OCC3)CC1)c1cc2ccccc2s1 | 3.2 |

----------
biological target: human D3 (Homo sapiens); construct: expressed in transfected cells; assay: Radioligand binding, human D3 in CHO cell membranes, [3H]spiperone; settings: Table 1c; read-out: D3-bonding (Ki), substance according to the invention
Parameter Ki: see the listing below.

| SMILES TEXT | Ki |
| --- | --- |
| N#Cc1ccc2sc(C(=O)NCCCCN3CCN(c4cccc5c4OCCCC5)CC3)cc2c1 | 97 pM |
| O=C(NCCCCN1CCN(c2cccc3c2OCCCC3)CC1)c1cc2ccccc2s1 | 98 pM |
| O=C(NCCCCN1CCN(c2cccc3c2OCCC3)CC1)c1cc2ccccc2s1 | 160 pM |
| O=C(NCCCCN1CCN(c2cccc3c2OCC3)CC1)c1cc2ccccc2s1 | 310 pM |

----------
target: human D3 (Homo sapiens, UniProt P35462); construct: expressed in transfected cells; assay: Radioligand binding, human D3 in CHO cell membranes, [3H]spiperone; conditions: Table 1b; read-out: D3-bonding (Ki), substance according to the invention
MEASURED QUANTITY: Ki (nM)

| SMILES TEXT | OBSERVED |
| --- | --- |
| O=C(NCCCCN1CCN(c2cccc3c2OCCCC3)CC1)c1cc2ccccc2o1 | 0.089 |

----------
molecular target: D1-receptor (Sus scrofa, UniProt P50130); construct: native membrane homogenates, obtained from porcine striatum; test: Radioligand binding, D1-receptor, porcine striatum membranes, [3H]SCH 23390; conditions: average of 2-6 experiments in triplicate
Sequence (P50130 whole entry): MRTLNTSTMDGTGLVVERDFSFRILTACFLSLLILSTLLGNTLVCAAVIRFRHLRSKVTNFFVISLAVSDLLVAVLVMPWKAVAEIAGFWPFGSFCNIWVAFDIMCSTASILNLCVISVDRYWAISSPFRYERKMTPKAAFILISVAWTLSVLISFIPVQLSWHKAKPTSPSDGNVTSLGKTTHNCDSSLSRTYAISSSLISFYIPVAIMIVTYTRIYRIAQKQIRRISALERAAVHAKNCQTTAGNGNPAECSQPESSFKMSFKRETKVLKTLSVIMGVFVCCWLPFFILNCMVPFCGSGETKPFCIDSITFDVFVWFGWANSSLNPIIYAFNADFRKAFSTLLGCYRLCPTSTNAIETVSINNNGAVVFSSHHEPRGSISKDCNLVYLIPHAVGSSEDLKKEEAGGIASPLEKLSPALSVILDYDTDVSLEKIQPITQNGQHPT
Ki values, listed per item

| SMILES TEXT | SYSTEM TESTED | Ki [nM] |
| --- | --- | --- |
| O=C(NCCCCN1CCN(c2cccc3c2OCC3)CC1)c1cc2ccccc2[nH]1 | D1-receptor (Sus scrofa, UniProt P50130) | 300 |
| O=C(NCCCCN1CCN(c2cccc3c2OCCC3)CC1)c1cc2ccccc2s1 | D1-receptor (Sus scrofa, UniProt P50130) | 300 |
| O=C(NCCCCN1CCN(c2cccc3c2OCCC3)CC1)c1cc2ccccc2[nH]1 | D1-receptor (Sus scrofa, UniProt P50130) | 290 |
| O=C(NCCCCN1CCN(c2cccc3c2OCC3)CC1)c1cc2ccccc2s1 | D1-receptor (Sus scrofa, UniProt P50130) | 260 |

----------
Reported Ki by item:
target: human D3 (Homo sapiens, UniProt P35462); construct: expressed in transfected cells; assay: Radioligand binding, human D3 in CHO cell membranes, [3H]spiperone; conditions: Table 1a; read-out: D3-bonding (Ki), substance according to the invention

| SMILES TEXT | Ki, pM |
| --- | --- |
| N#Cc1ccc2cc(C(=O)NCCCCN3CCN(c4cccc5c4OCCCC5)CC3)[nH]c2c1 | 75 |
| O=C(NCCCCN1CCN(c2cccc3c2OCCC3)CC1)c1cc2ccccc2[nH]1 | 170 |
| O=C(NCCCCN1CCN(c2cccc3c2OCCCC3)CC1)c1cc2ccccc2[nH]1 | 52 |
| O=C(NCCCCN1CCN(c2cccc3c2OCC3)CC1)c1cc2ccccc2[nH]1 | 350 |

----------
biological target: porcine α1-receptor; assay: Radioligand binding, α1-receptor, porcine cortex membranes, [3H]prazosin; conditions: average of 2-6 experiments in triplicate, read-out: Receptor binding Ki alpha1
pKi: −log10 of the molar value.

| SMILES TEXT | pKi |
| --- | --- |
| O=C(NCCCCN1CCN(c2cccc3c2OCCC3)CC1)c1cc2ccccc2[nH]1 | 8.64 |
| O=C(NCCCCN1CCN(c2cccc3c2OCCC3)CC1)c1cc2ccccc2s1 | 8.34 |
| O=C(NCCCCN1CCN(c2cccc3c2OCC3)CC1)c1cc2ccccc2[nH]1 | 8.70 |
| O=C(NCCCCN1CCN(c2cccc3c2OCC3)CC1)c1cc2ccccc2s1 | 8.38 |

----------
target: dopamine D3 receptor (Homo sapiens, UniProt P35462); construct: expressed in transfected cells; assay: Mitogenesis assay, [3H]thymidine incorporation in D3 receptor-expressing cells; format: cell-based; details: with reference to the maximum effect of the full agonist quinpirol

| SMILES TEXT | SYSTEM TESTED | Agonistic activity |
| --- | --- | --- |
| O=C(NCCCCN1CCN(c2cccc3c2OCCC3)CC1)c1cc2ccccc2s1 | dopamine D3 receptor (Homo sapiens, UniProt P35462) | 38% |
| O=C(NCCCCN1CCN(c2cccc3c2OCC3)CC1)c1cc2ccccc2s1 | dopamine D3 receptor (Homo sapiens, UniProt P35462) | 42% |
| O=C(NCCCCN1CCN(c2cccc3c2OCC3)CC1)c1cc2ccccc2[nH]1 | dopamine D3 receptor (Homo sapiens, UniProt P35462) | 0% |
| O=C(NCCCCN1CCN(c2cccc3c2OCCC3)CC1)c1cc2ccccc2[nH]1 | dopamine D3 receptor (Homo sapiens, UniProt P35462) | 0% |
